System under test: Transthyretin (Homo sapiens) (UniProt P02766)
Assay protocol: Transthyretin (TTR) amyloidogenesis inhibition activity by employing an acid-mediated (pH 4.4) WTTTR amyloid fibril formation assay, at 7.2 uM conc.
Assay type: functional
The label is Fulfilled for Fibril formation below 30% and Not fulfilled for Fibril formation equal to or exceeding 30%.

Problem: Given "O=Cc1cccc(-c2cc(F)cc(F)c2)c1" , is recorded Fibril formation strictly lower than 30%?
Result: Not fulfilled

Problem: Given "O=Cc1ccccc1-c1ccccc1" , is recorded Fibril formation strictly lower than 30%?
Result: Not fulfilled

---

System under test: Transthyretin (Homo sapiens) (UniProt P02766)
Assay protocol: Ability to bind TTR selectively over all other proteins in human blood plasma (equiv bound)
Assay type: cell-free
Use 0.3 as the dividing line for Plasma selectivity, with the line itself on the Y side and lower values as N.

As a guide, the following entries are already answered.
• O=C(O)c1ccc(-c2ccccc2)cc1 = N
• O=C(O)c1ccc(-c2ccc(F)cc2F)cc1 = N
• O=Cc1ccccc1-c1cc(Cl)cc(Cl)c1 = Y

Problem: Textbook exercise: given the entry "O=C(O)c1ccc(-c2cc(Cl)cc(Cl)c2)cc1" , state whether its Plasma selectivity is greater than or equal to 0.3.
Result: Y

Problem: Textbook exercise: given the entry "Oc1cccc(-c2cc(F)cc(F)c2)c1" , state whether its Plasma selectivity is greater than or equal to 0.3.
Result: N

Problem: Textbook exercise: given the entry "O=C(O)c1cccc(-c2c(F)cccc2F)c1" , state whether its Plasma selectivity is greater than or equal to 0.3.
Result: N

Problem: Textbook exercise: given the entry "OCc1ccc(-c2cc(Cl)cc(Cl)c2)cc1" , state whether its Plasma selectivity is greater than or equal to 0.3.
Result: Y

Problem: Textbook exercise: given the entry "O=C(O)c1cccc(-c2cc(Cl)c(O)c(Cl)c2)c1" , state whether its Plasma selectivity is greater than or equal to 0.3.
Result: N

Problem: Textbook exercise: given the entry "O=C(O)c1cc(-c2ccc(F)cc2)ccc1O" , state whether its Plasma selectivity is greater than or equal to 0.3.
Result: N

Problem: Textbook exercise: given the entry "OCc1cccc(-c2cc(Cl)cc(Cl)c2)c1" , state whether its Plasma selectivity is greater than or equal to 0.3.
Result: Y

Problem: Textbook exercise: given the entry "O=C(O)c1cccc(-c2cc(Cl)cc(Cl)c2)c1" , state whether its Plasma selectivity is greater than or equal to 0.3.
Result: Y

---

System under test: Transthyretin (Homo sapiens) (UniProt P02766)
Assay protocol: Transthyretin (TTR) amyloidogenesis inhibition activity by employing an acid-mediated (pH 4.4) WTTTR amyloid fibril formation assay, at 7.2 uM conc.
Assay type: functional
Our labelling divides records by Fibril formation into ranges: bin 0: < 7%; bin 1: ≥ 7% and < 50%; bin 2: ≥ 50%

Problem: For this molecule, which bin applies? "O=C(O)c1ccccc1-c1cc(Cl)cc(Cl)c1"
Result: bin 1

Problem: For this molecule, which bin applies? "O=C(O)c1ccc(-c2c(F)cccc2F)cc1"
Result: bin 0

---

System under test: UniProtKB P02766
Assay protocol: Transthyretin (TTR) amyloidogenesis inhibition activity by employing an acid-mediated (pH 4.4) WTTTR amyloid fibril formation assay, at 3.6 uM conc.
Type: functional
// reported Fibril formation for each item listed

* O=C(O)c1ccc(-c2ccccc2F)cc1 | 32.4%

Record summary for "O=C(O)c1cccc(-c2cc(Cl)c(O)c(Cl)c2)c1" : reported Fibril formation = 25.5%

Record summary for "O=C(O)c1ccc(-c2c(F)cccc2F)cc1" : reported Fibril formation = 28.5%
